- protocol: in vivo
- conditionInfo: rat

compound	TD50 at 672 h (µmol/kg)
CC(C)Cc1ccc(C(C)C(=O)O)cc1 (centres unmarked)	590
CC(C)Cc1ccc(C(C)C(=O)Nc2cccc(C(F)(F)F)c2)cc1 (centres unmarked)	660

* * *

- protocol: in vivo
- conditionInfo: rat, ip, LD50 by intraperitoneal route in the rat, female rats
measuredProperty: LD50 (mg/kg)

compound	observed
CC(C)Cc1ccc(C(C)C(=O)Nc2cccc(C(F)(F)F)c2)cc1 (stereo not shown)	1760

* * *

- protocol: in vivo
- conditionInfo: rat, ip, LD50 ± f.l. (P 0,05), intraperitoneal, f.l. = fiduciary limits

compound	resultUnit	LD50
CC(C)Cc1ccc(C(C)C(=O)Nc2cccc(C(F)(F)F)c2)cc1 (stereo not shown)	mg/kg	1200
